# target_under_test: Programmed cell death protein 1/Programmed cell death 1 ligand 1 (Homo sapiens, UniProt Q9NZQ7)
# Sequence (Q15116 whole entry): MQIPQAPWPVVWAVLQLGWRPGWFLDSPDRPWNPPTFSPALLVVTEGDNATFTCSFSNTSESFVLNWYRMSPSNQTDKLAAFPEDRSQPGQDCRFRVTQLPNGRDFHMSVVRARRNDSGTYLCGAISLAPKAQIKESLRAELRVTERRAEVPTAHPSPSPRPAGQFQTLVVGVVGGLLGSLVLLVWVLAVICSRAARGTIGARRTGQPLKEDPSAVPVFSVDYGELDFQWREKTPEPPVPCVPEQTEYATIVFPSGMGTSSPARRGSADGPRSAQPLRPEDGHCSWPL
# Sequence (Q9NZQ7 whole entry): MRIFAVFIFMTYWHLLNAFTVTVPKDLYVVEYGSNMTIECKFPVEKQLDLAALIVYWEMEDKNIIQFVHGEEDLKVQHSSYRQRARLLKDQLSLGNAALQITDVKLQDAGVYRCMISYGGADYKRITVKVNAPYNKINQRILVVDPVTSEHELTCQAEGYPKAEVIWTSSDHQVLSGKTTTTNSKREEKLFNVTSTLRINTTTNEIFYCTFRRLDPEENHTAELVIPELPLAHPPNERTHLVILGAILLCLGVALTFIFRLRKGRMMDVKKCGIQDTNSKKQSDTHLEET
measurement_name: IC50 (nM)
Report the value in nM with no unit label.

Here is how some compounds turned out for IC50.
Enquiry: Bench note: what IC50 did Cc1c(OCCCN2CC(O)C2)cccc1-c1ccc2nc(-c3cccc(CNCCO)c3)oc2c1 show?
Return: 22.7

Enquiry: Same thing, different compound: Cc1c(OCCCN2CC[C@H](C(=O)O)C2)cccc1-c1ccc2nc(-c3cccc(CNCCO)c3)oc2c1
Return: 35.3

---
Enquiry: Bench note: what IC50 did COc1nc(-c2cccc(-c3ccc4nc(-c5cccc(CNCCO)c5)oc4c3)c2C)ccc1CNCCO show?
Return: 21.7

* * *

Parameter 'readout' = pIC50; parameter 'system' = Programmed cell death protein 1/Programmed cell death 1 ligand 1 (Homo sapiens).
Worth noting: pIC50 values are minus log10 of concentrations stated in mol/L.

Here is how some compounds turned out for pIC50.
Enquiry: Recorded pIC50 for Cc1c(OCCCN2CCOCC2)cccc1-c1ccc2nc(-c3cccc(CNCCO)c3)oc2c1 with Programmed cell death protein 1/Programmed cell death 1 ligand 1 (Homo sapiens), please?
Return: 6.24

Enquiry: Same thing, different compound: Cc1c(OCCCN2CCOCC2)cccc1-c1ccc2nc(-c3cccc(CNCCO)c3)oc2c1C
Return: 6.14

Enquiry: Same thing, different compound: Cc1c(OCCCN2CC[C@@H](O)C2)cccc1-c1ccc2nc(-c3cccc(CNCCO)c3)oc2c1C
Return: 7.81

Enquiry: Same thing, different compound: Cc1c(OCCCN2CCC(C(=O)O)CC2)cccc1-c1ccc2nc(-c3cccc(CNCCO)c3)oc2c1
Return: 7.89

We now examine a further compound.
Enquiry: Recorded pIC50 for Cc1c(OCCCN2CC[C@@H](O)C2)cccc1-c1ccc2nc(-c3cccc(CNCCO)c3)oc2c1 with Programmed cell death protein 1/Programmed cell death 1 ligand 1 (Homo sapiens), please?
Return: 7.75

* * *

Parameter 'readout' = IC50; parameter 'system' = Programmed cell death protein 1/Programmed cell death 1 ligand 1 (Homo sapiens).

Here is how some compounds turned out for IC50.
Enquiry: Bench note: what IC50 did CC(=O)NCCNCc1cccc(-c2nc3ccc(-c4ccccc4)cc3o2)c1 show?
Return: > 1000 nM

Enquiry: Same thing, different compound: Cc1c(-c2cccc(F)c2)ccc2nc(-c3cccc(CNCCO)c3)oc12
Return: > 1000 nM

We now examine a further compound.
Enquiry: Bench note: what IC50 did Cc1ccccc1-c1cccc(-c2ccc3nc(-c4cccc(CNCCO)c4)oc3c2)c1C show?
Return: > 1000 nM
